Data origin, for the record: patent US20210246166A1

Recorded human MASP1 IC50 values for a group of binders are listed next.
Target: T1, recombinant human MASP1 active protease (amino acids 297-699, C-terminal His Tag) (human, UniProt P48740 297-699)
T1 sequence: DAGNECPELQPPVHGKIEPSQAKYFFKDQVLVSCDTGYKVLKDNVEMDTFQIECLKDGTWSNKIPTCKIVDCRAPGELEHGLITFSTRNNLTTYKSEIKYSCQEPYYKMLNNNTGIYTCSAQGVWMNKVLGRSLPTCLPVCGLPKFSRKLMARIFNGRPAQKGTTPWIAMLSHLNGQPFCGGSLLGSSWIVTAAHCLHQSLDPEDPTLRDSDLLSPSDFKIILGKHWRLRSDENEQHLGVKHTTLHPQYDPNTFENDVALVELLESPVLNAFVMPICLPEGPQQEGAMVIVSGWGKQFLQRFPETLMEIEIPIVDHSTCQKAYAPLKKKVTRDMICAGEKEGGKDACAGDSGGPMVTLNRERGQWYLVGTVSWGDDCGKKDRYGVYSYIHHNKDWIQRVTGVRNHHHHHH
Assay: cell-based or functional assay
Bridge positions count the residues as written; N and C are the ends. Square brackets hold non-standard residues; d marks the D form. Ends that are not written are not given here. Oic = O=C(O)[C@@H]1C[C@@H]2CCCC[C@@H]2N1; tBuAla = CC(C)(C)C[C@H](N)C(=O)O; Pen = CC(C)(S)[C@H](N)C(=O)O; Aib = CC(C)(N)C(=O)O
reported_property: human MASP1 IC50 (nM)

[[record]]
binder = "AICSRSLP[Oic]ICIPD-OH (disulfide 3-11; N-terminus assumed; SMILES CC[C@H](C)[C@H](NC(=O)[C@H](C)N)C(=O)N[C@H]1CSSC[C@@H](C(=O)N[C@H](C(=O)N2CCC[C@H]2C(=O)N[C@@H](CC(=O)O)C(=O)O)[C@@H](C)CC)NC(=O)[C@H]([C@@H](C)CC)NC(=O)[C@@H]2C[C@@H]3CCCC[C@@H]3N2C(=O)[C@@H]2CCCN2C(=O)[C@H](CC(C)C)NC(=O)[C@H](CO)NC(=O)[C@H](CCCNC(=N)N)NC(=O)[C@H](CO)NC1=O) [AIC+SRSLP-(Oic)-IC+IPD-OH]"
unit_name = "nM"
observed_value = 4.65

[[record]]
binder = "[Aib]ICSRS[tBuAla]PPI[Pen]IPD-NH2 (disulfide 3-11; N-terminus assumed; SMILES CC[C@H](C)[C@@H]1NC(=O)[C@@H]2CCCN2C(=O)[C@@H]2CCCN2C(=O)[C@H](CC(C)(C)C)NC(=O)[C@H](CO)NC(=O)[C@H](CCCNC(=N)N)NC(=O)[C@H](CO)NC(=O)[C@@H](NC(=O)[C@@H](NC(=O)C(C)(C)N)[C@@H](C)CC)CSSC(C)(C)[C@@H](C(=O)N[C@H](C(=O)N2CCC[C@H]2C(=O)N[C@@H](CC(=O)O)C(N)=O)[C@@H](C)CC)NC1=O) [(Aib)-IC+SRS-((tBu)A)-PPI-(Pen)+IPD-NH2]"
unit_name = "nM"
observed_value = 1.19

